Reported T/C is given for each of the following compounds.
Tested on: L1210 leukemia ip in BDF1 mice, survival T/C
Experiment: NCI In Vivo Anticancer Drug Screen. Data for tumor model L1210 Leukemia (intraperitoneal) in B6D2F1 (BDF1) mice
Details: endpoint: mean survival time; dose: 20.0 mg/kg/injection; schedule: Q01DX001 (ip); vehicle: saline; higher = longer survival
Protocol: The antitumor activity of compounds was measured in mice bearing transplantable tumors. Survival or tumor size were measured and the results are expressed as the measurement made in the treated group (T) divided by the measurement made in the vehicle treated control group (C). The tumor model used in this assay is L1210 Leukemia (intraperitoneal) in B6D2F1 (BDF1) mice
Toxic doses and inconclusive results are not listed.

| Compound | Target desc | Experimental value |
| --- | --- | --- |
| CC[C@@]1(O)C(=O)OCc2c1cc1n(c2=O)Cc2cc3cc(OC)ccc3nc2-1 | L1210 leukemia ip in BDF1 mice, survival T/C | 112 % of control |
| Oc1ccc2ccc(O)c(C(NC(O)c3ccccc3)c3ccccc3)c2c1C(NC(O)c1ccccc1)c1ccccc1 (stereo unspecified) | L1210 leukemia ip in BDF1 mice, survival T/C | 96 % of control |
| CC(C)=CC1CC(C)C2(CCC3(C)CC4C(C(=O)CC4(C)O)/C(C=O)=C\CC32)O1 (stereo unspecified) | L1210 leukemia ip in BDF1 mice, survival T/C | 97 % of control |

T/C in this record for CC1CN1CC(O)C(O)CN1CC1C (stereo unspecified) : 91 % of control

Quick note, T/C for CN(C)c1ccc(-c2nc3nc[nH]c(=O)c3[nH]2)cc1 landed at 96 % of control

Entry under test: Cn1c2ccccc2c2cc[n+]3c(c21)CCCC3 . Its T/C was 115 % of control

###

Reported T/C values for the following compounds.
Test system: L1210 leukemia ip in BDF1 mice, survival T/C
Assay: NCI In Vivo Anticancer Drug Screen. Data for tumor model L1210 Leukemia (intraperitoneal) in B6D2F1 (BDF1) mice
Settings: endpoint: mean survival time; dose: 200.0 mg/kg/injection; schedule: Q04DX003 (ip); vehicle: other; higher = longer survival
Toxic doses and inconclusive results are not listed.

| Compound | T/C |
| --- | --- |
| C/C(=C\C(C)(C)c1ccccc1)c1ccccc1 | 100 % of control |

Lab note: compound CC(Cc1ccc2c(c1)OCO2)C(C)Cc1ccc2c(c1)OCO2 (centres undefined) tested on L1210 leukemia ip in BDF1 mice, survival T/C; recorded T/C was 102 % of control

Here O=C(Nc1cccc2ccccc12)NC1CC1 was tested on L1210 leukemia ip in BDF1 mice, survival T/C, and its T/C came to 96 % of control

The measured T/C that Clc1nccc2n[nH]nc12 showed for L1210 leukemia ip in BDF1 mice, survival T/C is 100 % of control

###

Test system: L1210 leukemia ip in BDF1 mice, survival T/C
Experiment: NCI In Vivo Anticancer Drug Screen. Data for tumor model L1210 Leukemia (intraperitoneal) in B6D2F1 (BDF1) mice
Details: endpoint: mean survival time; dose: 10.0 mg/kg/injection; schedule: Q01DX001 (ip); vehicle: saline; higher = longer survival
Inconclusive results and toxic doses are left out.
Endpoint label: T/C

Below, 5 compounds whose answers are already recorded.
| Compound | Target desc | Experimental value |
| --- | --- | --- |
| c1ccc([S+]([CH2][Hg][CH2][S+](c2ccccc2)c2ccccc2)c2ccccc2)cc1 | L1210 leukemia ip in BDF1 mice, survival T/C | 109 % of control |
| CO[C@H](C(=O)[C@@H](O)[C@@H](C)O)[C@@H]1Cc2cc3cc(OC4CC(OC5CC(O)C(O)C(C)O5)C(O)C(C)O4)c(C)c(O)c3c(O)c2C(=O)[C@H]1OC1CC(OC2CC(OC3CC(C)(O)C(O)C(C)O3)C(O)C(C)O2)C(O)C(C)O1 (stereo partly specified) | L1210 leukemia ip in BDF1 mice, survival T/C | 91 % of control |
| CCc1c(C)[nH]c2c1C(=O)CCC2 | L1210 leukemia ip in BDF1 mice, survival T/C | 98 % of control |
| Nc1nc(=O)n(C2OC(CO)C(O)C2O)cc1F (stereo unspecified) | L1210 leukemia ip in BDF1 mice, survival T/C | 124 % of control |
| Oc1ccc2ccc(O)c(C(NC(O)c3ccccc3)c3ccccc3)c2c1C(NC(O)c1ccccc1)c1ccccc1 (stereo unspecified) | L1210 leukemia ip in BDF1 mice, survival T/C | 96 % of control |

Now look at this one.
Nc1nc2nc(I)[nH]c2c(=O)[nH]1 on L1210 leukemia ip in BDF1 mice, survival T/C gives T/C = 102 % of control

###

Tested on: L1210 leukemia ip in BDF1 mice, survival T/C
Assay: NCI In Vivo Anticancer Drug Screen. Data for tumor model L1210 Leukemia (intraperitoneal) in B6D2F1 (BDF1) mice
Settings: endpoint: mean survival time; dose: 400.0 mg/kg/injection; schedule: Q04DX002 (ip); vehicle: saline with Tween-80; higher = longer survival
Inconclusive results and toxic doses are left out.
Endpoint label: T/C

| Molecule | T/C |
| --- | --- |
| O=S(=O)(c1ccccc1)n1c(C(O)c2cccnc2)cc2ccccc21 (centres undefined) | 90 % of control |
| CN(C)C=Nc1cccc2cn[nH]c12 | 98 % of control |
| O=C(O)CC1CC2CCC1C2 (centres undefined) | 87 % of control |

So the reported T/C for COC(C(=O)O)c1ccc(Cl)cc1 (centres undefined) , on L1210 leukemia ip in BDF1 mice, survival T/C, turned out to be 91 % of control

###

Examples of molecules with documented T/C follow.
Test system: L1210 leukemia ip in BDF1 mice, survival T/C
Experiment: NCI In Vivo Anticancer Drug Screen. Data for tumor model L1210 Leukemia (intraperitoneal) in B6D2F1 (BDF1) mice
Details: endpoint: mean survival time; dose: 100.0 mg/kg/injection; schedule: Q01DX009 (ip); vehicle: saline sonified; higher = longer survival
Inconclusive results and toxic doses are left out. Peptide text beside a SMILES is read from it. * marks the point of attachment. Cbz = O=C(OCc1ccccc1)*

Take a look at these entries with their results.
| Molecule | Experimental value |
| --- | --- |
| O=C(O)CCCCCCC1CCCC1=O (stereo unspecified) | 97 % of control |
| O=[N+]([O-])c1ccc(S)cc1 | 103 % of control |
| CC(C)C(NC(=O)C1CCCN1C(=O)OCc1ccccc1)C(=O)O (stereo not drawn) (Cbz-Pro-Val-OH; configuration not given here) | 102 % of control |
| O=C(O)/C(=C\c1ccccc1Br)c1ccc(C(F)(F)F)cc1[N+](=O)[O-] | 109 % of control |
| CC(c1ccccc1)c1ccc(O)cc1 (stereo unspecified) | 97 % of control |

# context switch: different molecule, same T/C
Notebook: COc1cc(NC(N)=O)cc(OC)c1OC , T/C read as 101 % of control

###

Tested on: L1210 leukemia ip in BDF1 mice, survival T/C
Test: NCI In Vivo Anticancer Drug Screen. Data for tumor model L1210 Leukemia (intraperitoneal) in B6D2F1 (BDF1) mice
Conditions: endpoint: mean survival time; dose: 25.0 mg/kg/injection; schedule: Q04DX003 (ip); vehicle: saline with Tween-80; higher = longer survival
Toxic doses and inconclusive results are not listed.
Endpoint label: T/C

| Compound | Endpoint label | Experimental value |
| --- | --- | --- |
| Cc1cc(OC(=O)Nc2c(C)cccc2C)cc(C)c1Cl | T/C | 107 % of control |
| CCCCN(CCCC)CC(C)O (stereo not drawn) | T/C | 104 % of control |

We next turn to a different compound, shown below.
// O=C(O)C1C(c2ccccc2)=C(c2ccccc2)c2ccccc21 (stereo not drawn) : T/C value = 92 % of control

###

Tested on: L1210 leukemia ip in BDF1 mice, survival T/C
Test: NCI In Vivo Anticancer Drug Screen. Data for tumor model L1210 Leukemia (intraperitoneal) in B6D2F1 (BDF1) mice
Conditions: endpoint: mean survival time; dose: 200.0 mg/kg/injection; schedule: Q04DX003 (ip); vehicle: saline with Tween-80; higher = longer survival
Toxic doses and inconclusive results are not listed.
Measured T/C of individual entries

Check out these entries, answers already filled in.
| Molecule | Endpoint label | Experimental value |
| --- | --- | --- |
| c1cc2cccc3c2c(c1)c1sc2c4cccc5cccc(c54)c2c31 | T/C | 90 % of control |
| CCCN(CCC)C(=O)C1C2C=CC(C2)C1C(=O)N(CCC)CCC (stereo not given) | T/C | 111 % of control |
| O=C1N/C(=N\OCc2ccccc2)CC(NOCc2ccccc2)N1 (stereo not given) | T/C | 97 % of control |

Quick note, T/C for c1ccc(P(=NC2CCCC2)(c2ccccc2)c2ccccc2)cc1 landed at 92 % of control

Please fill in: T/C reported for O=c1c(-c2ccccc2)coc2ccccc12 = 92 % of control

For reference, reported T/C for Cc1ccc(S(=O)(=O)Nc2ccc3nc(C)oc3c2)cc1 stands at 91 % of control

Sure, the documented T/C for CCC(C)OC(=O)Nc1cccc(OC(=O)NC(C)C)c1 (stereo not given) is 102 % of control

Value of measured T/C for the entry CN/N=C/c1ccc([N+](=O)[O-])o1 : 88 % of control

Briefly, T/C measured for CCCSCCCCSCCC : 92 % of control

get_value(item= Cc1ccc(S(=O)(=O)Nc2ccccc2SSc2ccccc2NS(=O)(=O)c2ccc(C)cc2)cc1 , readout=T/C) returns 97 % of control

# molecule CC(=O)Oc1cc(OC(C)=O)c(Oc2cc(OC(C)=O)c(OC(C)=O)c(OC(C)=O)c2)c(OC(C)=O)c1 ; its T/C = 95 % of control

# T/C of Cc1cc(OC(=O)Nc2c(C)cccc2C)cc(C)c1Cl = 92 % of control

Noted for CCCC(C)c1ccc(C(C)=O)cc1 (stereo not given) : its T/C reads 96 % of control

T/C for COc1cc(CC(=O)O)c(OC)cc1CC(=O)O is 96 % of control

Reported T/C of CCC/C(C)=N\O : 111 % of control

Value of T/C reported for the molecule CCCCOC(=O)c1cccnc1 is 103 % of control

Field T/C (entry CC(=O)c1ccc2c3c(cccc13)CC2 ) reads 104 % of control

// T/C lookup, molecule = CC(C)(C)c1cc(C(C)(C)C)c(O)c(C(C)(C)C)c1 , result: 98 % of control

T/C recorded for this molecule, O=C1C=C(Nc2ccccc2)C(=O)C=C1Nc1ccccc1 , is 86 % of control
